settings: in n-propanol, 303.15 K
readout: solubility (mole fraction)

recordSmiles: O=C(c1ccccc1)c1ccc(Cl)cc1
assayResult: 0.0325

* * *

details: in n-butanol, 318.15 K
readout: solubility (mole fraction)

recordSmiles: O=C(c1ccccc1)c1ccc(Cl)cc1
readout: solubility (mole fraction)
assayResult: 0.0993

* * *

settings: in methanol, 278.15 K
readout: solubility (mole fraction)

recordSmiles: O=C(c1ccccc1)c1ccc(Cl)cc1
assayResult: 0.00549

* * *

settings: in methyl acetate, 288.15 K

recordSmiles: O=C(c1ccccc1)c1ccc(Cl)cc1
solubility (mole fraction): 0.134

* * *

conditions: in isopropanol, 323.15 K
readout: solubility (mole fraction)

recordSmiles: O=C(c1ccccc1)c1ccc(Cl)cc1
assayResult: 0.0896
